Target or system ML1a human melatonin receptor (Homo sapiens, UniProt P48039); recorded quantity pIC50.
pIC50: −log10 of the molar value.

compound	measure-name	recorded-result
CCC(=O)NCC1C(c2cccc3oc(C)cc23)C1(F)F (centres unmarked)	pIC50	7.00 to 8.00
CCCC(=O)NC[C@@H]1C[C@H]1c1cccc2oc(C)cc12 (relative stereo)	pIC50	> 8.00
CCC(=O)NC[C@@H]1C[C@H]1c1cccc2c1CCO2 (relative stereo)	pIC50	> 8.00
CCC(=O)NC[C@@H]1C[C@H]1c1cccc2c1CC(C)O2 (single isomer, unassigned; (-))	pIC50	> 8.00

# input for lookup
Prompt: Would you kindly share the measured pIC50 for O=C(NC[C@@H]1C[C@H]1c1cccc2ccoc12)C1CC1 (relative stereo) ?
Completion: 7.00 to 8.00

meta.source: patent US5856529A
